test: Quantitative High-Throughput drug screen in 47 multiple myeloma cell lines against the NCATS MIPE library collection: Delta47_JCRB cell viability assay (AID 1918925; further: nearly all actives have a fitted effect of over 45% in size); conditions: Delta47 myeloma viability, CellTiter-Glo ATP, 48 h; series mostly up to 45.8 µM
Records with an inconclusive call do not appear. Activity calls are given as the source filed them. The call rests on the fitted dose curve; in most records, active means well fitted cell-killing curve with a large enough effect; inconclusive means small, poorly fitted or top-dose-only effect, or effect the other way; inactive means no such curve, though single readings can be large or run the other way.
Outcome codes: active, inactive

compound | className
C#CCN(C)[C@H](C)Cc1ccccc1 | inactive
CNC(=O)N1N=C(c2ccc(N)cc2)c2cc3c(cc2CC1C)OCO3 (stereo unspecified) | active
CNC(=O)c1ccc(N2C(=S)N(c3ccc(C#N)c(C(F)(F)F)c3)C(=O)C23CCC3)cc1F | active
COC[C@@H](NC(C)=O)C(=O)NCc1ccccc1 | inactive
Cc1cccc(C)c1NC(=O)CN1CCCC1=O | inactive
CCCC(C)(COC(N)=O)COC(=O)NC(C)C (stereo unspecified) | inactive
Fc1ccc(C(OCCN2CCN(CCCc3ccccc3)CC2)c2ccc(F)cc2)cc1 | active
Cc1sc2c(c1C)C(c1ccc(Cl)cc1)=N[C@@H](CC(=O)OC(C)(C)C)c1nnc(C)n1-2 | active
Cn1cc(C2=C(c3cn(C4CCN(Cc5ccccn5)CC4)c4ccccc34)C(=O)NC2=O)c2ccccc21 | active
N[C@@H](Cc1ccc(N(CCCl)CCCl)cc1)C(=O)O | active
C[C@@H]1[C@@H](CC(C[C@H]2O[C@@H]3O[C@]4(C)CC[C@@H]5[C@H](C)CC[C@@H]([C@H]2C)[C@@]35OO4)C[S+](=O)([O-])c2ccc(COC(=O)N(C)C)cc2)O[C@@H]2O[C@]3(C)CC[C@H]4[C@H](C)CC[C@@H]1[C@@]24OO3 (stereo partly specified) | active

----------
experiment: qHTS for Inhibitors of the Functional Ribonucleoprotein Complex (vRNP) of Lassa (LASV) Arenavirus: Viability assay - alamar blue signal for LASV Primary Screen (AID 1347083); details: cell viability, alamar blue fluorescence (LASV minigenome counter-screen); series mostly up to 57.5 µM; further: nearly all actives have a fitted effect of over 80% in size
Inconclusive results are not listed. Calls of active or inactive are those of the source. Calls come from the whole dose curve; tested in HEK293 reporter line.

compound | outcome
NS(=O)(=O)c1cc2c(cc1Cl)NC=NS2(=O)=O | inactive
CN1CCN(C2=Nc3cc(Cl)ccc3Nc3ccccc32)CC1 | inactive
CCC(C(N)=O)N1CCCC1=O (stereo unspecified) | inactive
CCc1ccc(CCOc2ccc(CC3SC(=O)NC3=O)cc2)nc1 (stereo unspecified) | inactive
O=c1[nH]cnc2c1ncn2[C@H]1CC[C@@H](CO)O1 | inactive
CN1C[C@H](CNC(=O)OCc2ccccc2)C[C@@H]2c3cccc4c3c(cn4C)C[C@H]21 | inactive

----------
Assay: qHTS of pediatric cancer cell lines to identify multiple opportunities for drug repurposing: Primary screen for SK-N-MC cells (AID 1347093); further: potency means the concentration at half of the fitted maximal effect
Details: SK-N-MC viability, CellTiter-Glo luminescence, 48 h; series mostly up to 46 µM
Procedure: Drug repurposing or repositioning has been offered as a strategy for drug development in oncology programs. […] [1] Shen, M et al. Quantitative high-throughput phenotypic screening of pediatric cancer cell lines identifies multiple opportunities for drug repurposing. […] Cells were assayed in growth media at a density of 500-1,000 cells/well. […] After a 15 min incubation at room temperature, samples were analyzed for luminescence intensity using a ViewLux High-throughput CCD imager equipped with clear filters.
Results filed as inconclusive are left out. Calls of active or inactive are those of the source. Calls come from the whole dose curve; as a rule, active = well fitted cell-killing curve with a large enough effect; inconclusive = small, poorly fitted or top-dose-only effect; inactive = no such curve, though single readings can be large or run the other way.
endpointName: Potency

compound | observedValue
O=P1(NCCCl)OCCCN1CCCl (stereo not drawn) | inactive
CCN(CC)CCOC(=O)C(O)(c1ccccc1)c1ccccc1 | inactive
OCCOc1ccccc1 | inactive
CCC1(C2=NCCN2)Cc2ccccc2O1 (stereo not drawn) | inactive
COc1ccc(C(=O)c2c(C)n(CCN3CCOCC3)c3ccccc23)cc1 | inactive
Cn1c(CCCC(=O)O)nc2cc(N(CCCl)CCCl)ccc21 | 26.4 µM (active)
Clc1cccc(N2CCNCC2)c1 | inactive
Cc1ccc2c(c1)C1CN(C)CCC1N2 (stereo not drawn) | inactive
CN(C)CCc1ccc(O)cc1 | inactive
O=C(NC(O)C(Cl)(Cl)Cl)NC(O)C(Cl)(Cl)Cl (stereo not drawn) | inactive
C=C1CC[C@@]2(O)[C@H]3Cc4ccc(O)c5c4[C@@]2(CCN3CC2CC2)[C@H]1O5 | inactive
N[C@@H]1C[C@H]1c1ccccc1 | inactive
C#CCN(C)[C@H](C)Cc1ccccc1 | inactive

These measurements were taken from PubChem BioAssay (NCATS).
